Reference for the values: patent US8822517B2

Each entry below lists one item and its recorded activation at 1 µM value.
Biological target: histaminergic H1 receptor (Homo sapiens)
Sequence (P35367 whole entry): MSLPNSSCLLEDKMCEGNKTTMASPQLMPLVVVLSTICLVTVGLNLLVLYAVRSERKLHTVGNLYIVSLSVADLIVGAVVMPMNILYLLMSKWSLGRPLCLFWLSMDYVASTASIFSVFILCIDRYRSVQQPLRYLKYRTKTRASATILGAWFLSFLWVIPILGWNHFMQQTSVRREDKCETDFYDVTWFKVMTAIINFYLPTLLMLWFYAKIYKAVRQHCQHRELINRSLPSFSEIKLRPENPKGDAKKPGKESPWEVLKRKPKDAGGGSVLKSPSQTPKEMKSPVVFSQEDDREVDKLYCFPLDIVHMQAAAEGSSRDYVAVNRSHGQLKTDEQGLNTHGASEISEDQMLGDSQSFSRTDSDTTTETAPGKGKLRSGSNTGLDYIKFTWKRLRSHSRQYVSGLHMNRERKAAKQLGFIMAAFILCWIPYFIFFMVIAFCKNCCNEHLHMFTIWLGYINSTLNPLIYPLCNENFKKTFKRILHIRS
Assay: Cellular functional assay, histaminergic H1 receptor (agonism/antagonism)
Type: cell-based
Conditions: agonist effect, percent of control specific agonist response; compounds tested at 1×10^−6M; read-out: H1 -ag [%]
Kindly provide the numeric value in % only, without the unit symbol.

Examples with their reported activation at 1 µM follow.
Cc1c(S(=O)(=O)NCCCCN2CCN(c3noc4ccccc34)CC2)sc2ccc(F)cc12 ... 1
O=S(=O)(NCCCCN1CCC(c2noc3cc(F)ccc23)CC1)c1ccc(Br)cc1 ... 30
Cc1c(S(=O)(=O)NCCCCN2CCN(c3nsc4ccccc34)CC2)sc2ccc(F)cc12 ... 0

// next item, activation at 1 µM requested
Request: activation at 1 µM for `O=S(=O)(NCCCN1CCC(c2noc3cc(F)ccc23)CC1)c1ccc2cc(Cl)ccc2c1` ?
Result: -1
